Source of measurements: PubChem BioAssay AID1159580

Assay Procedure: chemical genetic growth profiling, strain panel (AID 1159580);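 also: tested at 20 µM; growth read once vehicle control cultures reached saturation at 30 °C; lower values mean less growth of the strain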
Measurement Context: S. cerevisiae deletion strains, growth OD, locus YLR262C, strain YPT6, active compounds read low
Hit rate of the full screen: of about 5,500 compounds, about 2,000 (36%) were called active. Inconclusive results (about 18%) are left out. Some of the results follow.
# note: exactly 1 is not below, so it is False; use True for normalized growth strictly under it

Is normalized growth strictly under 1 for the entry `c1ccc(-c2csc(-c3ccncc3)n2)cc1` ?
True

Another compound: `CNNC`
False

Another compound: `CCCSc1ccc2nc(NC(=O)OC)[nH]c2c1`
True

Another compound: `OC[C@H]1O[C@@](CO)(O[C@@H]2O[C@H](CO)[C@@H](O)[C@H](O)[C@H]2O)[C@@H](O[C@@H]2O[C@H](CO)[C@@H](O)[C@H](O)[C@H]2O)[C@@H]1O`
False

Another compound: CC(C)CCCC(C)[C@H]1CCC2C3C(=O)C=C4C[C@@H](O)CC[C@]4(C)C3CC[C@@]21C (stereo partly specified)
False

Another compound: `Clc1ccc(Sc2ncnc3ccsc23)cc1`
False

Another compound: `N[C@@H](CCC(=O)N[C@@H](CS)C(=O)NCC(=O)O)C(=O)O`
True

Another compound: `CCOC(=O)c1ccc(NC(N)=S)cc1`
False

Another compound: `c1ccc(-c2nc(-c3cccs3)cs2)cc1`
True
